# measured target: T1, biotinylated cynomolgus monkey VWF cysteine knot (CK) domain construct (cynomolgus monkey, biotinylated in vitro (BirA) on the biotinylation tag; one N-glycan)
# T1 construct: Expressed in HEK293 EBNA cells; disulfide-linked homodimer; also called cyno VWF CK; cyno VWF CK domain; not shown: in vitro biotinylation tag, HRV-3C site and 3 VWF residues before the CK domain
# T1 chain: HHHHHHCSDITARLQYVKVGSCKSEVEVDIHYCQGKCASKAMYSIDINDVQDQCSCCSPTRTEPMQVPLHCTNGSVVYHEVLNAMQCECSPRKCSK
# assay: SPR, scFv captured via anti-SV5, CK domain injected, pH 7.4, apparent Kd;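 also: scFvs from crude yeast supernatants printed on an amine-coupled anti-SV5 lawn, Kd computed as koff over kon, likely overestimating affinity because the CK construct is dimeric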
endpoint label: pKd
Scale for pKd: -log10 of concentration given in mol/L; no unit attached.

In the examples that follow, each entry is paired with its recorded pKd.
Lib1_P1_E9_scFv (scFv, VH-linker-VL; not shown: C-terminal 3xFLAG and SV5 tags) scFv: QVQLVQSGAEVKKPGASVKVSCKVSGYTFTSHIIHWVRQAPGKGLEWMGGMNPYSNKAIYAQKFQGRVTMTEDTSTDTAYMELSSLKSEDTAVYYCARDASDYGDYGYYYYYMDVWGKGTTVTVSSSGGSTITSYNVYYTKLSSSGTDIQMTQSPSSVSASVGDRVTITCRASQYIGNDLAWYQQKPGKAPKLLIYEASQRPSGVPSRFSGSGSGTDFTLTISSLQPEDFANYYCQQQYNYPLTFGGGTKVEIK
9.27
Lib6_P3_B9_scFv (scFv, VH-linker-VL; not shown: C-terminal 3xFLAG and SV5 tags) scFv: EVQLVQSGAEVKKPGASVKVSCKASGDTFSSHVISWVRQAPGQGLEWMGGINPRTGTTIYAQKLQGRGTMTTDPSTSTAYMELRSLRSDDTAVYYCARTRPWAGLDVWGQGTTVTVSSSGGSTITSYNVYYTKLSSSGTESALTQPASVSGSPGQSITISCTGTNIEYKGVSWYQQHPGKAPKLMIYGVDKRPSGVSNRFSGSKSGNTASLTISGLQAEDEADYYCQAWGTSTAIFGGGTKLTVL
8.99

Field request: pKd | item: Lib6_P3_A1_scFv (scFv, VH-linker-VL; not shown: C-terminal 3xFLAG and SV5 tags) scFv: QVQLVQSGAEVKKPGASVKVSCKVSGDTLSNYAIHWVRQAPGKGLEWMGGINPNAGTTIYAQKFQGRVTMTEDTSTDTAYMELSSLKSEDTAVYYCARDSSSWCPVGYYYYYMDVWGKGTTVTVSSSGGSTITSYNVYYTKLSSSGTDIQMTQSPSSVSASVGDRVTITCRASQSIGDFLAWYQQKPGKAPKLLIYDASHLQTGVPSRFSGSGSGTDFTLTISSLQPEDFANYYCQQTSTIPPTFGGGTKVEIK 10.77
